B1: INTS3 (parent)
chain: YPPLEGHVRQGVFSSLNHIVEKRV

- Variants of: B1
- ASSAY_TEXT: protein stability index of a GFP-peptide fusion (GPS, HEK-293T) (PSI 1-6); higher = more stable;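 further: lentivirally expressed fusions sorted by FACS into six bins by GFP to DsRed ratio, PSI derived from sequencing read proportions per bin multiplied by bin number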
- CONDITIONS_USED: c terminus: a fixed tail appended
Everything with protein stability index lower than 3 is Criterion not met; everything else, including exactly 3, is Criterion met.

Worked examples follow.
VARIANT_ID	CLASS_LABEL
R23K	Criterion not met
R9M	Criterion not met
R23W	Criterion not met
K22T	Criterion not met
H7V	Criterion not met
K22Q	Criterion not met
E21G	Criterion not met
N17H	Criterion not met

Alright, here's another variant for you.
Prompt line: Determine whether this variant has protein stability index no lower than 3: E21M
Response line: Criterion not met
